Quick reference for inhibition in vivo at 1 mg/kg among some compounds
tested on: mice; assay: Tail Suspension Test in Mice (TST); assay type: in vivo; details: Mus musculus, reduction in immobility vs control group, 1 mg/kg, po
Where a name gives a salt, the structure may show the parent alone.
In your response, the unit should come after the numeric value.

>  <compound>
COc1ccccc1N1CCN(CCCCOc2cccc(Cn3ncnn3)c2)CC1 [Example 8, hydrochloride]

>  <inhibition in vivo at 1 mg/kg>
19.6%

$$$$
>  <compound>
COc1ccccc1N1CCN(CCCCOc2ccc(CCn3cnnn3)cc2)CC1

>  <inhibition in vivo at 1 mg/kg>
26.4%

$$$$

Task: // returns reported inhibition in vivo at 1 mg/kg for input `COc1ccccc1N1CCN(CCCCOc2ccc(CCn3nccn3)cc2)CC1`
Result: 34.3%

src = patent US8772299B2
